Target: human OAT2 (Homo sapiens)
Sequence (Q9Y694 1-546 isoform Q9Y694-2): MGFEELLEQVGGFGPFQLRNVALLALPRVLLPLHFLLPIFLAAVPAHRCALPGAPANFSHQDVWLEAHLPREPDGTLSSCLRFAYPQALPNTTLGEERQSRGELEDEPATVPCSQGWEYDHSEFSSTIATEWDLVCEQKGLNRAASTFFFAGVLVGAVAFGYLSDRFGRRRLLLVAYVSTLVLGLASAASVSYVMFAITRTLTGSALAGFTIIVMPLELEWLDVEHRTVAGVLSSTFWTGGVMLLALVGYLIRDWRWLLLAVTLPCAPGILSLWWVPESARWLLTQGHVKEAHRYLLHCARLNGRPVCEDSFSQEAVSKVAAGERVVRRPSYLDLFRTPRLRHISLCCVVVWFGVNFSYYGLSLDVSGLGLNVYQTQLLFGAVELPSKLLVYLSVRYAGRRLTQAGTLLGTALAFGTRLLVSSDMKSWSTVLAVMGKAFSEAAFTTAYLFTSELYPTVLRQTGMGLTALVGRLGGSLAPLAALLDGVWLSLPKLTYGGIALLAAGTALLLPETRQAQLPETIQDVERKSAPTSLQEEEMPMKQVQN
Test: in vitro
Protocol: Briefly, HEK-293 cells were grown, at 37°C and 5% CO2, in Dulbecco’s modified Eagle’s medium, which was fortified with 10% fetal bovine serum, 1% minimal essential medium nonessential amino acids, and 1% antibiotic-antimycotic solution. […] Transport studies were performed 48 h after the transfection. […] All the incubation samples were analyzed by liquid chromatography/mass spectrometry. […]
QUANTITY MEASURED: substrate of human OAT2

Prompt: Given `O=C(/C=C/c1ccc(O)c(O)c1)O[C@H](Cc1ccc(O)c(O)c1)C(=O)O` , state its recorded substrate of human OAT2.
Response: substrates

Prompt: `O=C(O)Cc1c(/C=C/C(=O)O[C@H](Cc2ccc(O)c(O)c2)C(=O)O)ccc(O)c1O` , same question.
Response: substrates

Prompt: `O=C(O)c1ccc(O)c(O)c1` , same question.
Response: substrates
